Target: Serine/threonine-protein kinase Nek6 (Homo sapiens)
Assay: NEK6 kinase inhibitors, dose response, biochemical, Z'-LYTE FRET, direct format, recombinant human (AID 1671331)
Conditions: Z'-LYTE FRET kinase activity
measurement.label: pIC50
Please keep in mind that pIC50 is minus log10 of the molar concentration; only the number is needed.

Request: Param item = CN1C(=O)C2(Cc3cn(C45CC67SSC(CO)(C(=O)N6C4Nc4ccccc45)N(C)C7=O)c4ccccc34)SSC1(CO)C(=O)N2C (stereo unspecified) ; retrieve measured pIC50.
Result: 7.23
